target_system: DRB5*0101 (DR2w2a) (Homo sapiens, UniProt P01903+Q30154)
Construct: used as sources of human HLA class II molecules; endogenous in cells; host or cells: GM3107 (EBV-transformed homozygous B cell line)
protocol_description: Class II peptide-binding assay, DR2w2a (DR2w2B2);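 also: competitive binding assay: unlabeled peptide inhibiting binding of a radiolabeled probe peptide to purified DR molecules at pH 7.0, IC50 approximating Kd, lower means stronger binding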
particulars: read-out: DR2w2B2 nM; Table VIII, In IC50 Format
Square brackets hold non-standard residues; d marks the D form. Peptide text beside a SMILES is read from it.
For each record, write down the corresponding pIC50.
For clarity, pIC50 is expressed as the negative log10 of concentration in mol/L.

pIC50 for CC(C)C[C@H](NC(=O)[C@H](CCCCN)NC(=O)[C@H](CC(C)C)NC(=O)[C@@H](NC(=O)[C@H](CC(N)=O)NC(=O)[C@H](CCC(N)=O)NC(=O)[C@H](CCCCN)NC(=O)[C@@H](NC(=O)[C@H](Cc1ccc(O)cc1)NC(=O)[C@H](CCCCN)NC(=O)[C@@H]1CCCN1C(=O)[C@@H](N)CS)C(C)C)[C@@H](C)O)C(=O)N[C@@H](C)C(=O)N[C@H](C(=O)NCC(=O)O)[C@@H](C)O [Peptide 852.01] is 8.54

Given item CC(C)C[C@H](NC(=O)[C@@H](NC(=O)[C@@H](NC(=O)[C@H](CCC(N)=O)NC(=O)[C@H](CO)NC(=O)[C@H](CCC(N)=O)NC(=O)[C@H](Cc1ccccc1)NC(=O)[C@H](C)NC(=O)[C@H](C)NC(=O)[C@H](N)Cc1ccc(O)cc1)[C@@H](C)O)[C@@H](C)O)C(=O)N[C@@H](CCCCN)C(=O)N[C@@H](C)C(=O)N[C@@H](CCCCN)C(=O)N[C@@H](C(N)=O)[C@H](C)O [Peptide 858.04] (H-[dY]AAFQSQTTLKAK[dT]-NH2) , the value recorded as its pIC50 is 6.85

Measured pIC50, CC(C)C[C@H](NC(=O)[C@@H](NC(=O)[C@H](C)NC(=O)[C@H](C)NC(=O)[C@H](CCCCN)NC(=O)[C@@H](NC(=O)[C@H](Cc1ccccc1)NC(=O)[C@H](CCCCN)NC(=O)[C@@H](C)N)C(C)C)[C@@H](C)O)C(=O)N[C@@H](CCCCN)C(=O)N[C@@H](C)C(=O)N[C@@H](C)C(=O)N[C@H](C)C(N)=O [Peptide 909.02] (H-[dA]KFVKAATLKAA[dA]-NH2) : 8.10
